# reported PBM binding z-score; entries follow
# Tested on: THRa:RXRa (NR concentration 90 nM, RXRa partner concentration 90 nM)
# Method notes: PBM binding z-score (relative to random genomic background probes); higher = stronger binding; sequences stand for … in GC…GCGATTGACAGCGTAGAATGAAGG
// print number alone

Please review the entries below; each comes with its answer.
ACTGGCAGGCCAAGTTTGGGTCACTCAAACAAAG : 2.56
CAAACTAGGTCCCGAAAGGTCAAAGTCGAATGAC : 4.1
TGGAGTAGGTTAGGGGCATTCAGAATGGCGTCGA : 1.51

Q: Hi! What's the reported PBM binding z-score for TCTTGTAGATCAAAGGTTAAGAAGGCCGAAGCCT on THRa:RXRa (NR concentration 90 nM, RXRa partner concentration 90 nM)?
Result: 1.51

Q: Hi! What's the reported PBM binding z-score for ATCGAAATGTCGAAGGTGAGTATACCCACCCGAA on THRa:RXRa (NR concentration 90 nM, RXRa partner concentration 90 nM)?
Result: -0.023

Q: Hi! What's the reported PBM binding z-score for CCTTACTGGTCACTGACAGGTTATAGCATTTGGA on THRa:RXRa (NR concentration 90 nM, RXRa partner concentration 90 nM)?
Result: 0.492

Q: Hi! What's the reported PBM binding z-score for CCTCGGAGGACATAAGGTCAGAGCTGTCCGCTTT on THRa:RXRa (NR concentration 90 nM, RXRa partner concentration 90 nM)?
Result: 3.91

Q: Hi! What's the reported PBM binding z-score for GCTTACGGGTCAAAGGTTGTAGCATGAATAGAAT on THRa:RXRa (NR concentration 90 nM, RXRa partner concentration 90 nM)?
Result: 3.2

Q: Hi! What's the reported PBM binding z-score for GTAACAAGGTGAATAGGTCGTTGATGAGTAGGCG on THRa:RXRa (NR concentration 90 nM, RXRa partner concentration 90 nM)?
Result: 2.06

Q: Hi! What's the reported PBM binding z-score for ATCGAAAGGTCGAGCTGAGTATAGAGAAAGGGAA on THRa:RXRa (NR concentration 90 nM, RXRa partner concentration 90 nM)?
Result: 1.96

Q: Hi! What's the reported PBM binding z-score for GTTTGTAGATCAAGGTTAAGAAAGACTAAGCTAA on THRa:RXRa (NR concentration 90 nM, RXRa partner concentration 90 nM)?
Result: 1.44

Q: Hi! What's the reported PBM binding z-score for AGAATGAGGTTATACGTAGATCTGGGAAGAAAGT on THRa:RXRa (NR concentration 90 nM, RXRa partner concentration 90 nM)?
Result: 2.03

Q: Hi! What's the reported PBM binding z-score for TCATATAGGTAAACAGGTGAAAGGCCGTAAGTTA on THRa:RXRa (NR concentration 90 nM, RXRa partner concentration 90 nM)?
Result: 0.682

Q: Hi! What's the reported PBM binding z-score for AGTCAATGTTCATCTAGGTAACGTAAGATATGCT on THRa:RXRa (NR concentration 90 nM, RXRa partner concentration 90 nM)?
Result: 0.616

Q: Hi! What's the reported PBM binding z-score for TCTGCTAGGTCAGCGATGGTCAGCTAATCTGCTA on THRa:RXRa (NR concentration 90 nM, RXRa partner concentration 90 nM)?
Result: 2.4

Q: Hi! What's the reported PBM binding z-score for CCTAGGAGGACAACAGGAGGTCAGAGCTGCCAGA on THRa:RXRa (NR concentration 90 nM, RXRa partner concentration 90 nM)?
Result: 2.82

Q: Hi! What's the reported PBM binding z-score for TCTTGTAGATCAAAAGAGGTTAAGAAAGTGCGCT on THRa:RXRa (NR concentration 90 nM, RXRa partner concentration 90 nM)?
Result: 2.6

Q: Hi! What's the reported PBM binding z-score for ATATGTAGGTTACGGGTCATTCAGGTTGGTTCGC on THRa:RXRa (NR concentration 90 nM, RXRa partner concentration 90 nM)?
Result: 3.15

Q: Hi! What's the reported PBM binding z-score for CAATCTAGGTCACCGGAAGGTCAAAGTCCGCATG on THRa:RXRa (NR concentration 90 nM, RXRa partner concentration 90 nM)?
Result: 4.59

====

# reported PBM binding z-score; entries follow
# Tested on: PPARa:RXRa (NR concentration 270 nM, RXRa partner concentration 90 nM)
# Method notes: PBM binding z-score (relative to random genomic background probes); higher = stronger binding; sequences stand for … in GC…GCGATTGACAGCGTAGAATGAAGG
// print number alone

Please review the entries below; each comes with its answer.
CATACAGGGTCAGCTAGGCCCGAGTAGGGACGGC : 4.15
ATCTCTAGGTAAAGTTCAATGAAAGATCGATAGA : 3.32

Q: For TATCCTAGGTCATTGGGCCAGTATAGTACGCATC , what is its reported PBM binding z-score?
Result: 4.44

Q: For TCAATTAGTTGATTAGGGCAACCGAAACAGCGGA , what is its reported PBM binding z-score?
Result: 0.882

Q: For CAAACTAGGTGACCGGAAGGTCAAAGTCCGCATG , what is its reported PBM binding z-score?
Result: 4.99

Q: For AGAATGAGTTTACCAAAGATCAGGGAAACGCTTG , what is its reported PBM binding z-score?
Result: 0.0717

Q: For GGAACGAGGGCTTTCGAGTTGATAGCATGGCGAT , what is its reported PBM binding z-score?
Result: -0.173

====

# Test system: RXRa DBDmut IVT, anti-RXR (DBD mutation: RXRa K156A/R161A, NR concentration 90 nM)
# Method notes: PBM binding z-score (relative to random genomic background probes); higher = stronger binding; sequences stand for … in GC…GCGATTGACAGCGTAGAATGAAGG
Metric name: PBM binding z-score
// print number alone

Please review the entries below; each comes with its answer.
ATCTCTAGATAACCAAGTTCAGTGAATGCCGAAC : 0.852
ATCTCTAAGTAAAGTTCAGTGAAAGATCGATAGA : 1.71
TCTCGGAGGACACGAAAGGTCAGAGCGCGACATC : 1.09
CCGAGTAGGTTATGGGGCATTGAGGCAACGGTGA : -0.0381
CCCTACGGGTCAAGGTTATAGCACGGGTGGTACG : 0.145
CCTAGTTGGTCAAGGTCACACTCGCTATAGGTAC : 2.44

// below: PBM binding z-score requested for another sequence
Q: Hi! What's the reported PBM binding z-score for CCGAGTAGGTCATGGGGCATTCAGGCAACGGTGA on RXRa DBDmut IVT, anti-RXR (DBD mutation: RXRa K156A/R161A, NR concentration 90 nM)?
Result: 0.881

====

# Test system: VDR:RXRa (NR concentration 270 nM, RXRa partner concentration 90 nM)
# Method notes: PBM binding z-score (relative to random genomic background probes); higher = stronger binding; sequences stand for … in GC…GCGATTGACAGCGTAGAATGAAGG
Metric name: PBM binding z-score
// print number alone

Please review the entries below; each comes with its answer.
CGTCCAAGTTCAATGCTAGGTCAGTGAAAGCATT : 4.26
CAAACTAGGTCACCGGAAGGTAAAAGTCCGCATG : 2.84
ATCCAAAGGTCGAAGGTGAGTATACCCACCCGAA : 3.15

Q: For CCTAGCAGACCAGGGTCACTCAAGCATTTCGCTT , what is its reported PBM binding z-score?
Result: 2.69

Q: For CCGACTGGGGCATTAGGTTACCATAAGCCAGCCC , what is its reported PBM binding z-score?
Result: -0.353

Q: For GCGACTGGCGCAAAGCAGGTTACCATAAGGTTGG , what is its reported PBM binding z-score?
Result: -0.716

Q: For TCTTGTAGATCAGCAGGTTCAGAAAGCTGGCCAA , what is its reported PBM binding z-score?
Result: 3.4

Q: For TCATATAGGTAGTACAGGTGAAAGTCGGCATCTA , what is its reported PBM binding z-score?
Result: 0.794

====

# Test system: RARg homodimer (NR concentration 270 nM)
# Method notes: PBM binding z-score (relative to random genomic background probes); higher = stronger binding; sequences stand for … in GC…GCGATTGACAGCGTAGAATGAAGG
# reported PBM binding z-score; entries follow

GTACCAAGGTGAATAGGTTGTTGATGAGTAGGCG : 0.763
CCGACTGGGGCAGAAAGGTTACCATCCCATCCGG : 1.19
ATACCCAGGTGATCGTGAGGTCGTTGATACTAAC : 0.63
GCGACTGTGGCATCAGCAGGTTACCATAACTTAA : -0.291

Q: For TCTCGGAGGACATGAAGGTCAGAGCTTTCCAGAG , what is its reported PBM binding z-score?
Result: 2.57

Q: For TTACCAAGGTGAGCTGGGGTCGTTGATCCAACTC , what is its reported PBM binding z-score?
Result: 0.493

Q: For CCAGAAAGGTGAGAAGGTAACTCAGCCTCGATTA , what is its reported PBM binding z-score?
Result: 1.91

Q: For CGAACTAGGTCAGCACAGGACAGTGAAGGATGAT , what is its reported PBM binding z-score?
Result: 4.34

Q: For ACTATTAGTTGAGACGAGGGCAACCGCTAGGTTG , what is its reported PBM binding z-score?
Result: 0.507

Q: For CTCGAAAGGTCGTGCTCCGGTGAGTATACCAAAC , what is its reported PBM binding z-score?
Result: 3.94

Q: For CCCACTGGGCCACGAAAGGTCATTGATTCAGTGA , what is its reported PBM binding z-score?
Result: 4.33

Q: For TGTCAAAGTTCAAAGGTAGCGTAAGTATCCACAC , what is its reported PBM binding z-score?
Result: 5.8

Q: For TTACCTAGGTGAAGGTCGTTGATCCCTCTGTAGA , what is its reported PBM binding z-score?
Result: 0.525

Q: For ACCATTAGTTGAGACGAGGGCAACCGATAGGTTG , what is its reported PBM binding z-score?
Result: 0.629

The origin of these recorded values is the supplement of paper PMC6555819.
